The entries below are paired with their reported inhibition at 3 µM.
Organism: Rattus norvegicus
Experiment: Compound was tested for percentage inhibition of isometric force in response to a test compound in isolated rat bladder strips pre-contracted with carbachol at a concentration of 3 uM
Assay type: functional
Report only the number, with the unit % understood.

These recorded examples may help you get a feel for the data.
# structure_string, inhibition at 3 µM, %
rows = [
    ("O=c1[nH]c(-c2ccc(C(F)(F)F)cc2)nn1-c1cc(Cl)ccc1O", 22),
    ("Oc1ccc(Cl)cc1-n1nc(-c2cc(C(F)(F)F)cc(C(F)(F)F)c2)nc1O", 15),
]

**Query** What does the record list as inhibition at 3 µM for "Oc1ccc(Cl)cc1-n1nc(-c2ccc(C(F)(F)F)c(Cl)c2)nc1O" ?
**Result** 5

**Query** Now the compound "Oc1ccc(Cl)cc1-n1nc(-c2ccccc2C(F)(F)F)nc1O"
**Result** 34

**Query** Would you mind doing "Oc1ccc(Cl)cc1-n1nc(-c2ccc(C(F)(F)F)cc2C(F)(F)F)nc1O" as well?
**Result** 46

**Query** Ok, now "Oc1ccc(Cl)cc1-n1nc(-c2cccc(C(F)(F)F)c2)nc1O"
**Result** 42

**Query** Would you mind doing "Oc1ccc(Cl)cc1-n1nc(-c2ccccc2)nc1O" as well?
**Result** 35
